target: Integrin alpha-4 (Homo sapiens) (UniProt P13612); assay: enhancers of LDV-FITC binding to VLA-4 integrin, primary screen, Jurkat cells, flow cytometry (AID 528); conditions: active compounds read high, screened at 10 µM (by protocol);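 note: 0% = ligand binding without compound and 100% = manganese-stimulated maximal binding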
Sequence (P13612 whole entry, looked up): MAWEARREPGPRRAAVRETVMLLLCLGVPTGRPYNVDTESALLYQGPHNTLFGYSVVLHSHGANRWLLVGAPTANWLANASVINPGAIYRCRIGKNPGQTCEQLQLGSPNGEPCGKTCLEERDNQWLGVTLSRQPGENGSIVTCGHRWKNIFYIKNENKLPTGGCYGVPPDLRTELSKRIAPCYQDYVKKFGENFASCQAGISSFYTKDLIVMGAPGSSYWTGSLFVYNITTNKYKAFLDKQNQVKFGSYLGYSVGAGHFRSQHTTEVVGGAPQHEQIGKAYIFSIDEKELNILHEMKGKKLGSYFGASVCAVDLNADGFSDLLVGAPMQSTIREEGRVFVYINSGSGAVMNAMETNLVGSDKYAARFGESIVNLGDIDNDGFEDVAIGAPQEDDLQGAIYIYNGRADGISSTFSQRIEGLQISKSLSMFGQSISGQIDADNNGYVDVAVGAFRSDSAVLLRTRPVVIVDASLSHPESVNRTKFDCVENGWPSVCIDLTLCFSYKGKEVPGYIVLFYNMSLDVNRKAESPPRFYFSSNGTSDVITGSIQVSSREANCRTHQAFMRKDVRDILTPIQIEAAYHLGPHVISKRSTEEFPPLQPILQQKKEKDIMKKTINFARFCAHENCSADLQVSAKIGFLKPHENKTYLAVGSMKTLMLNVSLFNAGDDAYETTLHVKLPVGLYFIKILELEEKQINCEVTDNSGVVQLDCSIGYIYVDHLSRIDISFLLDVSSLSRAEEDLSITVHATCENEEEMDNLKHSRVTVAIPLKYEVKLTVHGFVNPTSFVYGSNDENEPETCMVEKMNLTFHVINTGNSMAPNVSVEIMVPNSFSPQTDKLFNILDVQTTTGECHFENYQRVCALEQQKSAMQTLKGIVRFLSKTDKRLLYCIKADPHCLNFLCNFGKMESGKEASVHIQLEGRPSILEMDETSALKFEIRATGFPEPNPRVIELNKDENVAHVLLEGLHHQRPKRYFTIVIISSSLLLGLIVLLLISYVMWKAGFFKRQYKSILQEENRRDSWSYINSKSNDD
Fewer than 10 of roughly 24,000 compounds were called active. Not shown: some 9% with an inconclusive outcome. Not all results are given here.
ENDPOINT_NAME: activation (%)

MOLECULE: CCOC(=O)c1ccc(Nc2cc(C)nc3nc(C)nn23)cc1
TARGET_UNDER_TEST: Integrin alpha-4 (Homo sapiens) (UniProt P13612)
RESULT: 5

MOLECULE: Cc1nc2ccc(NC(=O)N3CCC(c4ccccc4)C3)cc2nc1C (centres undefined)
TARGET_UNDER_TEST: Integrin alpha-4 (Homo sapiens) (UniProt P13612)
RESULT: -3

MOLECULE: CSCCC(NC(=O)C1CCC(C)CC1)C(=O)NCc1ccco1 (centres undefined)
TARGET_UNDER_TEST: Integrin alpha-4 (Homo sapiens) (UniProt P13612)
RESULT: 3

MOLECULE: CC(c1cccnc1)N(CCN(C)C)C(=O)Nc1ccc(Cl)c(Cl)c1 (centres undefined)
TARGET_UNDER_TEST: Integrin alpha-4 (Homo sapiens) (UniProt P13612)
RESULT: -2

MOLECULE: c1cc(-c2nn[nH]n2)ccc1CN1CCCCC1
TARGET_UNDER_TEST: Integrin alpha-4 (Homo sapiens) (UniProt P13612)
RESULT: 1

MOLECULE: Cc1cc(=O)n2nc(N3CCCC(C(=O)NCCC4=CCCCC4)C3)sc2n1 (centres undefined)
TARGET_UNDER_TEST: Integrin alpha-4 (Homo sapiens) (UniProt P13612)
RESULT: -3

MOLECULE: Cn1c(=O)[nH]c(=O)c2c1nc(CN(Cc1ccccc1)Cc1ccccc1)n2CCN1CCOCC1
TARGET_UNDER_TEST: Integrin alpha-4 (Homo sapiens) (UniProt P13612)
RESULT: -6

MOLECULE: COc1ccccc1-c1c(C)nn2c(C)c(C(C)=O)cnc12
TARGET_UNDER_TEST: Integrin alpha-4 (Homo sapiens) (UniProt P13612)
RESULT: -2

MOLECULE: CCOc1cc(/C=N/n2cnnc2)c(Br)cc1O
TARGET_UNDER_TEST: Integrin alpha-4 (Homo sapiens) (UniProt P13612)
RESULT: 9

MOLECULE: COc1cccc(C(=O)Nc2c3c(nn2-c2cccc(C)c2C)CS(=O)(=O)C3)c1OC
TARGET_UNDER_TEST: Integrin alpha-4 (Homo sapiens) (UniProt P13612)
RESULT: -3

MOLECULE: COc1ccccc1NC(=O)CN1CCN(S(=O)(=O)c2ccc(Br)cc2)CC1
TARGET_UNDER_TEST: Integrin alpha-4 (Homo sapiens) (UniProt P13612)
RESULT: 1

MOLECULE: CCCS(=O)(=O)N1CCCC(C(=O)N2CCN(c3ccccc3)CC2)C1 (centres undefined)
TARGET_UNDER_TEST: Integrin alpha-4 (Homo sapiens) (UniProt P13612)
RESULT: 0

MOLECULE: CCN(Cc1ccccc1)C(=O)CSc1nc(C)cc2c1C(=O)OC2
TARGET_UNDER_TEST: Integrin alpha-4 (Homo sapiens) (UniProt P13612)
RESULT: -9

MOLECULE: CC(C)OCCCNC(=O)C1CC(=O)N(C2CCCCCCC2)C1 (centres undefined)
TARGET_UNDER_TEST: Integrin alpha-4 (Homo sapiens) (UniProt P13612)
RESULT: -1

MOLECULE: Cc1ccc(NC(=O)CCNS(=O)(=O)c2ccc3c(c2)oc(=O)n3C)cc1C
TARGET_UNDER_TEST: Integrin alpha-4 (Homo sapiens) (UniProt P13612)
RESULT: 9

MOLECULE: CCOc1ccc(/C(O)=C2/C(=O)C(=O)N(Cc3cccnc3)C2c2ccc(N(C)C)cc2)c(C)c1 (centres undefined)
TARGET_UNDER_TEST: Integrin alpha-4 (Homo sapiens) (UniProt P13612)
RESULT: -4

MOLECULE: COc1ccc(OC)c(CNC(=O)CCc2nc(-c3cccs3)no2)c1
TARGET_UNDER_TEST: Integrin alpha-4 (Homo sapiens) (UniProt P13612)
RESULT: 2

MOLECULE: CCCN1CCN(C(=O)Cn2ncc3ccccc32)CC1
TARGET_UNDER_TEST: Integrin alpha-4 (Homo sapiens) (UniProt P13612)
RESULT: 5

MOLECULE: CC12COC3(C(=O)Nc4ccc(Cl)cn4)CC1CCC32C (centres undefined)
TARGET_UNDER_TEST: Integrin alpha-4 (Homo sapiens) (UniProt P13612)
RESULT: 5

MOLECULE: CCCC(=O)Nc1nnc(CC(=O)OCC)s1
TARGET_UNDER_TEST: Integrin alpha-4 (Homo sapiens) (UniProt P13612)
RESULT: -0.5

MOLECULE: FC(F)Oc1ccccc1C1CC(c2ccc(Br)s2)Nc2ncnn21 (centres undefined)
TARGET_UNDER_TEST: Integrin alpha-4 (Homo sapiens) (UniProt P13612)
RESULT: 3

MOLECULE: Clc1ccc(Cc2nn3c(-c4ccncc4)nnc3s2)cc1
TARGET_UNDER_TEST: Integrin alpha-4 (Homo sapiens) (UniProt P13612)
RESULT: 2

MOLECULE: O=C1CC(c2cccc(Br)c2)C2=C(CCCC2=O)N1 (centres undefined)
TARGET_UNDER_TEST: Integrin alpha-4 (Homo sapiens) (UniProt P13612)
RESULT: -3

MOLECULE: Cc1nc(NC(=O)C23CCC(C)(C(=O)O2)C3(C)C)sc1C (centres undefined)
TARGET_UNDER_TEST: Integrin alpha-4 (Homo sapiens) (UniProt P13612)
RESULT: 2
